For each entry below, report its Metabolic stability (HLM, % recovery after 15') value.
- protocol: Metabolic stability of test compounds (HLM15')
- Assay type: in vitro ADME, human
- recorded.conditions: human liver microsomes 1 mg/ml, 5 μM test compound, 15 min
Give bare numbers, in %.

CN(C[C@@H](O)[C@H](Cc1ccccc1)NC(=O)OCc1cncs1)C(=O)c1ccc2nc(N3CCCC3)oc2c1	71

Consider the following items and state reported Metabolic stability (HLM, % recovery after 15') for each.
1. CCNc1nc2ccc(C(=O)N(C[C@@H](O)[C@H](Cc3ccccc3)NC(=O)OCc3cncs3)CC(C)(C)O)cc2o1
2. CCN(C)c1nc2ccc(C(=O)N(CCN3CCCC3)C[C@@H](O)[C@H](Cc3ccccc3)NC(=O)OCc3cncs3)cc2o1
3. CC(C)(O)CN(C[C@@H](O)[C@H](Cc1ccccc1)NC(=O)OCc1cncs1)C(=O)c1ccc2nc(N3CCCC3)oc2c1
4. CC(C)(C)CN(C[C@@H](O)[C@H](Cc1ccccc1)NC(=O)OCc1cncs1)C(=O)c1ccc2nc(N3CCCC3)oc2c1
5. C#CCN(C)c1nc2ccc(C(=O)N(CC(C)C)C[C@@H](O)[C@H](Cc3ccccc3)NC(=O)OCc3cncs3)cc2o1

70
69
72
71
72
